- System: A549 NSCLC
- protocolNotes: NCI tumour cell line growth inhibition, 48 h
// TGI lookup, one value per entry

• NC(N)=NS(=O)(=O)c1ccc(Nc2c3ccccc3nc3c(C(=O)N4CCN(CCO)CC4)cccc23)cc1 = > 100 µM
• CN(C)/C(N)=N/C(N)=Nc1cccc(Cl)c1 = > 100 µM
• CC[C@@]1(OC(=O)CN)C(=O)OCc2c1cc1n(c2=O)Cc2cc3cc4c(cc3nc2-1)OCO4 = 0.309 µM

Task: Field: TGI (A549 NSCLC). Entry: `CNC(=O)CCNC(=O)CCC(=O)N(C)C`
Result: > 100 µM

Task: Field: TGI (A549 NSCLC). Entry: `NC(=O)c1cc(-c2ccc(-n3ccnc3)cc2)n[nH]c1=O`
Result: > 100 µM

* * *

- Tested on: SK-OV-3 ovarian
- protocolNotes: NCI tumour cell line growth inhibition, 48 h
// TGI lookup, one value per entry

• CC(=O)NC1=C(C)C(=O)c2c(nc3n2CCC3OC(=O)c2ccccc2)C1=N (stereo unspecified) = 6.59 µM
• Nc1nc(Cl)c(N)c(NCC2(CO)CC(Cc3ccccc3)C2)n1 (stereo unspecified) = > 100 µM
• NC(N)=NS(=O)(=O)c1ccc(Nc2c3ccccc3nc3c(C(=O)N4CCN(CCO)CC4)cccc23)cc1 = > 100 µM
• O=C(/C=C/c1ccccc1)c1c[nH]c2ccccc2c1=O = 6.82 µM

Task: Report TGI for Nc1ncnc2c1ncn2C1OC(CSC(F)(F)F)C(O)C1O (stereo unspecified) please.
Result: > 100 µM

Task: Report TGI for `Cn1c(NN)nc(-c2ccc([N+](=O)[O-])cc2)c(C#N)c1=O` please.
Result: 28.2 µM

Task: Report TGI for `O=[N+]([O-])c1ccc(N=Nc2c(O)ccc3cc(S(=O)(=O)O)ccc23)cc1` please.
Result: > 100 µM

Task: Report TGI for `COC(=O)c1ccccc1/C=C1/Cc2cccc(C)c2C1=O` please.
Result: > 100 µM

Task: Report TGI for `CC1=C(C)C(=O)C2=C(OCCCO2)C1=O` please.
Result: > 100 µM

Task: Report TGI for O=C1c2ccccc2C(=O)C2C1C1C(=O)c3ccccc3C(=O)C21 (stereo unspecified) please.
Result: > 100 µM

Task: Report TGI for COC(=O)C1CC(=O)CCC1c1ccccc1 (stereo unspecified) please.
Result: > 100 µM

Task: Report TGI for `CC1(C)OC(=O)[C@@](C)([C@H](O)c2ccccc2)O1` please.
Result: > 100 µM

Task: Report TGI for `C=CCn1c(=O)c2cnc(Nc3ccc(N4CCN(C)CC4)cc3)nc2n1-c1ccc2c(n1)[C@@](O)(CC)CC2` please.
Result: 4.48 µM

Task: Report TGI for NC(=O)C(c1ccccc1)N1OC2C(=O)N(Cc3ccccc3)C(=O)C2C1c1cccc(Oc2ccc(Cl)cc2)c1 (stereo unspecified) please.
Result: > 100 µM

Task: Report TGI for C=CCC1C(=O)C(C(=O)OC)N2CCc3c([nH]c4ccccc34)C12 (stereo unspecified) please.
Result: > 100 µM

Task: Report TGI for `COc1ccc(/C(CCl)=C(\Nc2ccccc2)c2ccc(OC)c(OC)c2)cc1OC` please.
Result: > 100 µM

* * *

// TGI lookup, one value per entry
- System: UACC-62 melanoma
- protocolNotes: NCI tumour cell line growth inhibition, 48 h

* Nc1ncnc2c1ncn2C1OC(CSC(F)(F)F)C(O)C1O (stereo unspecified) | > 100 µM
* CCN(CC)c1ccc2c(c1)OC(=O)C(c1nnc(-c3ccc([N+](=O)[O-])cc3)o1)C2 (stereo unspecified) | > 100 µM

Task: Report TGI for C=C[C@@H](OCOCC[Si](C)(C)C)[C@@H](CC)OC(CCCOC(=O)C(C)(C)C)OC (stereo partly specified) please.
Result: 81.3 µM

Task: Report TGI for O=S1CSCS1 (stereo unspecified) please.
Result: > 100 µM

Task: Report TGI for `COc1ccc(-c2nn(-c3ccc(NC(=O)c4ccc(Cl)c(C(F)(F)F)c4)cc3)cc2-c2ccncc2)cc1Cl` please.
Result: 5.02 µM

Task: Report TGI for `CCCN(CCCN)/[N+]([O-])=N\O` please.
Result: 0.831 µM

Task: Report TGI for CCOC(=O)C1=C(C)NC2SC(=O)/C(=C\c3ccccc3Cl)N2C1c1ccccc1 (stereo unspecified) please.
Result: > 100 µM

Task: Report TGI for `CN(Cc1cnc(N)nc1N)c1ccc(C(=O)O)cc1` please.
Result: > 100 µM

Task: Report TGI for `O=[N+]([O-])c1ccc(N=Nc2c(O)ccc3cc(S(=O)(=O)O)ccc23)cc1` please.
Result: > 100 µM

Task: Report TGI for CC(C)N(C(=O)C12C3C4C5C3C1(C(=O)N(C(C)C)C(C)C)C5(C#N)C42)C(C)C (stereo unspecified) please.
Result: > 100 µM

Task: Report TGI for `COC(=O)c1ccc(Oc2nc3ccccc3nc2-c2cccs2)cc1` please.
Result: > 100 µM
